# System: transactivating tegument protein VP16 (Human herpesvirus 1)
# assayName: VP16 transactivation reporter inhibitors, counter-screen for SRC2 inhibitor project, cell-based, luminescence, single concentration (AID 652007)
# recordedConditions: cell-based VP16 transactivation luciferase reporter, at 8.9 µM, active compounds read high
Activity calls are given as the source filed them. No stated cut-off is given here; in the data, active means inhibition above about 36%; inactive means the rest.
The entries below come with measured inhibition values attached.
propertyLabel: inhibition

* O=C(CN1C(=O)c2ccccc2S1(=O)=O)c1ccc2c(c1)OCCCO2 | 94.4% (active)
* COc1ccc(N(C(=O)CCl)C(C(=O)NCCc2ccccc2)c2cccs2)cc1Cl (stereo unspecified) | 29.9% (inactive)
* C=CCN(CC#CCN(C)C(=O)c1cccn1C(=O)OC(C)(C)C)Cc1ccc(OC)cc1OC | -6.71% (inactive)
* COc1ccc(-n2c(C)cc(C(=O)CSc3nnc(-c4cccs4)o3)c2C)cc1 | 20% (inactive)
* O=C(c1ccccc1Nc1ccc(SC(F)F)cc1)N1CCCCCC1 | 2.12% (inactive)
* COc1cccc(NC(=O)Nc2nc(-c3ccc(OC)c(OC)c3)cs2)c1 | 89.7% (active)
* COc1ccc(OC)c(C2C(C#N)=C(N)Oc3c2c(C)nn3-c2cccc(Cl)c2)c1 (stereo unspecified) | 3% (inactive)
* COc1ccccc1-c1cc2nc(C)c(CCC(=O)NCc3ccco3)c(C)n2n1 | -5.98% (inactive)
* COc1ccc(-c2[nH]ncc2-c2ccc3c(c2)OCCO3)c(O)c1 | 11.7% (inactive)
* Cc1nc([N+](=O)[O-])c(Sc2nc3ccccc3n2C)n1Cc1ccccc1 | 31.9% (inactive)
* CC(C)(C)c1ccc(/C=C/C(=O)NCCCN2CCOCC2)cc1 | -13.2% (inactive)
* O=C(NC(CSCc1ccccc1)C(=O)N/N=C/c1ccc(O)cc1O)c1ccc([N+](=O)[O-])cc1 (stereo unspecified) | -26.8% (inactive)
* CCC(C)c1ccc(C(C)NC(=S)NC2CCCCC2)cc1 (stereo unspecified) | -0.76% (inactive)
* CCS(=O)(=O)c1ncc(Cl)c(C(=O)Nc2ccc(S(=O)(=O)N(C)c3ccccc3)cc2)n1 | 65.2% (active)
* COc1ccc(C(=O)C(CN2CCCC2)c2ccccc2)cc1 (stereo unspecified) | 0.75% (inactive)
* CN(Cc1nccs1)C(=O)c1cc(COc2cccc3cnccc23)on1 | 16.6% (inactive)
* COc1ccc(N2CCN(C(=O)CCCCCn3c(=S)[nH]c4ccc(N5CCOCC5)cc4c3=O)CC2)cc1 | -3.27% (inactive)
* CC1CCc2nc(NC(=O)C3COc4ccccc4O3)sc2C1 (stereo unspecified) | -16.9% (inactive)
* COc1ccc(NC(=O)C2(C)Cc3c(-c4cccc(NC(C)=O)c4)ccnc3O2)cc1 (stereo unspecified) | -10.6% (inactive)
* COc1cc(OC)cc(C2=Cc3ccc(OC)cc3C(CC(C)=O)N2c2ccc(C#CC3(O)CCCCC3)cc2)c1 (stereo unspecified) | -2.24% (inactive)
* CN(Cc1ccc(Cl)cc1)C(=O)CCl | 29.1% (inactive)

---

The entries below come with measured inhibition values attached.
# Test system: transactivating tegument protein VP16 (Human herpesvirus 1)
# assayName: VP16 transactivation reporter inhibitors, counter-screen for SRC2 inhibitor project, cell-based, luminescence, single concentration (AID 652007)
# recordedConditions: cell-based VP16 transactivation luciferase reporter, at 8.9 µM, active compounds read high
propertyLabel: inhibition (%)

- O=C(Nc1ccc(N2CCOCC2)cc1)c1cnsn1: -8.19
- Nc1cccc(-c2cc3ccccc3oc2=O)c1: 22.1
- COc1ccc(-n2nc3cc(C)c(N)c(Br)c3n2)cc1: -67.1
- COc1ccc(/C=C2\CC/C(=C\c3ccc(OC)c(OC)c3)C2=O)cc1OC: 41.5
- C[C@H]1CCC/C=C/C(=O)c2c(O)cc(O)cc2CC(=O)O1: 41.5
- Cc1ccc(C)c(N2CCN(C(=O)c3ccc4c(c3)c(C)c(C)n4C)CC2)c1: -28.6
- C=C1C(=O)OC2CC1C(OC(C)=O)CC(C)=CCCC(C)=CCCC2(C)O (configuration not stated): 26.4
- O=C(/C=C/c1ccccc1)CC(O)(c1ccccc1)C(F)(F)C(F)F (configuration not stated): 7.22
- CCOc1ccc(CC(=O)Nc2ccc(NC(=O)c3ccco3)cc2)cc1OCC: 7.03
- CC1=C(C(=O)OCc2ccc3c(c2)OCO3)C(c2ccc(O)c([N+](=O)[O-])c2)NC(=O)N1 (configuration not stated): 20.7
- O=C(Nc1nnc(SCCN2CCOCC2)s1)C1CC(=O)N(c2ccccc2)C1 (configuration not stated): 1.56
- CCc1cc(-c2[nH]ncc2-c2ccc3c(c2)OCO3)c(O)cc1O: 30.3
- COC(=O)c1ccc(/C=C2/SC(=S)N(CCCC(=O)Nc3ccc(O)cc3)C2=O)cc1: 15.8
- COc1ccc2c(=O)cc(-c3ccncc3)oc2c1OC: -15.8
- O=C(CN1C(=O)NC2(CCCCC2)C1=O)Oc1ccc2c(C(F)(F)F)cc(=O)oc2c1: -11.6
- NS(=O)(=O)c1ccc(Sc2nc3ccccc3s2)c([N+](=O)[O-])c1: 33
- CCC(C)C(NC(=O)OCc1ccccc1)C(=O)OCN1C(=O)c2ccccc2C1=O (configuration not stated): -13.9
- CCCc1ccc(-c2ccc(/C=C/C(=O)O)cc2)nc1: 85.7
- COCCN(C(=O)CC1C(=O)NCCN1Cc1ccc(-c2ccccc2)cc1)C(C)C (configuration not stated): -1.75
- COc1cccc(N2CCN(c3ncnc4c3[nH]c3ccccc34)CC2C)c1 (configuration not stated): 63.8
- CC1CCc2c(sc3nc(CSc4ncn[nH]4)[nH]c(=O)c23)C1 (configuration not stated): 33
- CN(C)c1ccc(C2Nc3ccccc3C(=O)N2CCCN2CCOCC2)cc1 (configuration not stated): -12.2

Data origin, for the record: PubChem BioAssay
